# SYSTEM_NAME: plasma purified human complement protein C3 (human) (UniProt P01024)
# Sequence (P01024 23-667, chain 1 of 2): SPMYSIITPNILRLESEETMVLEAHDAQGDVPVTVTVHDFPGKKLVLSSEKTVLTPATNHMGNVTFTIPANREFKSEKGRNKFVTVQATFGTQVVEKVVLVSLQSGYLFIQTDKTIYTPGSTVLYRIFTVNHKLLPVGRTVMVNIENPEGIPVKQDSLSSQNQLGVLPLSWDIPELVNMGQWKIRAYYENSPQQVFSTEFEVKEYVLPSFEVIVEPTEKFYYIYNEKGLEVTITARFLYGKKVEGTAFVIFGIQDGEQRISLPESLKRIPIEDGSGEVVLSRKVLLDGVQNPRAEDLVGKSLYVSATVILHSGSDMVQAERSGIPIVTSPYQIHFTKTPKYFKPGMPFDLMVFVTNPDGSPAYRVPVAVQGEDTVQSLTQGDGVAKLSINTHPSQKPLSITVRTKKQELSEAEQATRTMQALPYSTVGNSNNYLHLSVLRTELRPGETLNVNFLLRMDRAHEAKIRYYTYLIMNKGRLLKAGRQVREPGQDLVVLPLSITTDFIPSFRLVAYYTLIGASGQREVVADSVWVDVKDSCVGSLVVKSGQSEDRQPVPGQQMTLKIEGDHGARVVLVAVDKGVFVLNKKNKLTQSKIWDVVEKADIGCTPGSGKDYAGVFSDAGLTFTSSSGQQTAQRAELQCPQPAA
# Sequence (P01024 672-1663, chain 2 of 2): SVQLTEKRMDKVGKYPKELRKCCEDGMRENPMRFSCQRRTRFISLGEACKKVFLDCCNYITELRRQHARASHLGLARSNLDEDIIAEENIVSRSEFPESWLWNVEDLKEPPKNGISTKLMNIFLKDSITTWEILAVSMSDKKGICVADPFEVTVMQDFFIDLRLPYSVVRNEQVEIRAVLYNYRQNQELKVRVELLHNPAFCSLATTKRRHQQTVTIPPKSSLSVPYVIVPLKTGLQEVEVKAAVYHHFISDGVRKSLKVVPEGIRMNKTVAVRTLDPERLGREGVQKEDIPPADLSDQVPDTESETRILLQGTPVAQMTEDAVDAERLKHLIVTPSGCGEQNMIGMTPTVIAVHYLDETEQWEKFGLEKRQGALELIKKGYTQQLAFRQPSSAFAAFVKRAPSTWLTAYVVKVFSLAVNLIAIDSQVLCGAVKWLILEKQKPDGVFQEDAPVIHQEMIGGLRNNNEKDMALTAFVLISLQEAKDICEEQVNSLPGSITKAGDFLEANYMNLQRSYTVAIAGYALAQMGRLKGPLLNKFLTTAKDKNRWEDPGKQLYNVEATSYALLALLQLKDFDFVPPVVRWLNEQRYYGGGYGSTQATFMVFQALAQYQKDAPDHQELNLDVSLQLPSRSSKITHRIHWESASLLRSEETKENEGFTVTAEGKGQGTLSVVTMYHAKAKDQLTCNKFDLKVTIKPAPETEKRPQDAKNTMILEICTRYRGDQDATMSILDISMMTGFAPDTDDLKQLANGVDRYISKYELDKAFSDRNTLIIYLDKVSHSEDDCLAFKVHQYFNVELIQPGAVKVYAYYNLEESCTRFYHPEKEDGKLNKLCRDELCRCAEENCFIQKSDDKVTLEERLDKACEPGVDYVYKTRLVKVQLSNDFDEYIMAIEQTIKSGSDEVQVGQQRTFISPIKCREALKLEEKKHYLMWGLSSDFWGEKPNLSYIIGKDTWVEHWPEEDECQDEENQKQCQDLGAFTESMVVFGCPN
# TEST_SUMMARY: cell-based or functional assay
Please provide measured EC50 of hC3 cleavage for the entries that follow.
One number for each entry, in nM.

Look over these answered cases.
MTSP-1 I41G/F97L/F99L/C122S/Q175A/Q192T/D217V (enzyme) VVGGTDADEGEWPWQVSLHALGQGHGCGASLISPNWLVSAAHCYIDDRGFRYSDPTQWTAFLGLHDQSQRSAPGVQERRLKRIISHPFFNDLTLDYDIALLELEKPAEYSSMVRPISLPDASHVFPAGKAIWVTGWGHTQYGGTGALILQKGEIRVINQTTCENLLPQAITPRMMCVGFLSGGVDSCTGDSGGPLSSVEADGRIFQAGVVSWGVGCAQRNKPGVYTRLPLFRDWIKENTGV = 7.75
MTSP-1 Q38H/I41S/D60bA/F60eV/Y60gF/F97T/ins97aE/T98G/F99L/C122S/Q175L/Q192T (enzyme) VVGGTDADEGEWPWQVSLHALGHGHSCGASLISPNWLVSAAHCYIDARGVRFSDPTQWTAFLGLHDQSQRSAPGVQERRLKRIISHPFFNDTEGLDYDIALLELEKPAEYSSMVRPISLPDASHVFPAGKAIWVTGWGHTQYGGTGALILQKGEIRVINQTTCENLLPQLITPRMMCVGFLSGGVDSCTGDSGGPLSSVEADGRIFQAGVVSWGDGCAQRNKPGVYTRLPLFRDWIKENTGV = 7.46

Documented EC50 of hC3 cleavage of MTSP-1 Q38H/I41S/D60bT/ins97aV/F97D/T98P/F99L/C122S/I136V/Q192G/D217S (enzyme) VVGGTDADEGEWPWQVSLHALGHGHSCGASLISPNWLVSAAHCYIDTRGFRYSDPTQWTAFLGLHDQSQRSAPGVQERRLKRIISHPFFNDDVPLDYDIALLELEKPAEYSSMVRPISLPDASHVFPAGKAVWVTGWGHTQYGGTGALILQKGEIRVINQTTCENLLPQQITPRMMCVGFLSGGVDSCGGDSGGPLSSVEADGRIFQAGVVSWGSGCAQRNKPGVYTRLPLFRDWIKENTGV : 22.2

Each recorded value in this set is attributed to patent US20240018502A1.
